assay_notes: amyloid nucleation score (Sup35N fusion, yeast selection) (log enrichment); library NNK2; higher = more nucleation; inactive = no reads after selection;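 further: zero at mode of non-aggregating sequences after 7 days selection at 30°C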
Output: class label from amyloid nucleation score. Mapping: low (below -0.2), middle (-0.2 to below 0.6), high (0.6 or more)

[
  {
    "substance": "SRLSKTRLPFWHFMNMLKMP",
    "assigned_category": "middle"
  },
  {
    "substance": "VYQYICFRVYGVVHWVGSSA",
    "assigned_category": "high"
  },
  {
    "substance": "HRSYCGFICASVLSAGPVHR",
    "assigned_category": "low"
  },
  {
    "substance": "DDLGMTFRLG",
    "assigned_category": "low"
  },
  {
    "substance": "CSNGLYPNTVGRLEYS",
    "assigned_category": "low"
  },
  {
    "substance": "DIMAAIYMDG",
    "assigned_category": "high"
  },
  {
    "substance": "ISYTVDQRRFTSLVRCLYDH",
    "assigned_category": "middle"
  },
  {
    "substance": "KYVVVYDSVYGFSVSGFSLW",
    "assigned_category": "high"
  },
  {
    "substance": "PFYLVRRGWNIWNSNGVECH",
    "assigned_category": "middle"
  },
  {
    "substance": "LRTQSILYLRRMG",
    "assigned_category": "middle"
  },
  {
    "substance": "SESMFLVKDSLTWTDVFLIG",
    "assigned_category": "low"
  },
  {
    "substance": "ILGLFSFPKMPMVDYNIWMR",
    "assigned_category": "middle"
  },
  {
    "substance": "FVCGGILFLLCFLE",
    "assigned_category": "high"
  },
  {
    "substance": "FMVWWFTIRVPEDCYQP",
    "assigned_category": "low"
  },
  {
    "substance": "AEANLNFGLMDGAMSVKRAE",
    "assigned_category": "low"
  },
  {
    "substance": "SWCVNVLAYSEKAFSRCVVM",
    "assigned_category": "high"
  },
  {
    "substance": "LFWFLCNVMERYRWNVDAYR",
    "assigned_category": "low"
  },
  {
    "substance": "TVIGFRDRDSWSMEMIEDHC",
    "assigned_category": "low"
  },
  {
    "substance": "RLLNPRVSKVWICAHNARDL",
    "assigned_category": "high"
  },
  {
    "substance": "LSNCNRMLAGQGGGSRSDWR",
    "assigned_category": "high"
  },
  {
    "substance": "TRMMCKRFRIML",
    "assigned_category": "middle"
  },
  {
    "substance": "LWFKCGHSIQGLVRVTESGS",
    "assigned_category": "middle"
  },
  {
    "substance": "CAVVRGLTVKAVL",
    "assigned_category": "low"
  },
  {
    "substance": "FLFGLSIMLLNKEPGRCFRG",
    "assigned_category": "high"
  },
  {
    "substance": "RRAENLMEFGLIRAFY",
    "assigned_category": "middle"
  },
  {
    "substance": "AFVLRVNYNLNTRGYVSLFK",
    "assigned_category": "high"
  },
  {
    "substance": "CTIKIGWYWL",
    "assigned_category": "high"
  },
  {
    "substance": "DMGVFSLLDNK",
    "assigned_category": "middle"
  },
  {
    "substance": "ARYISCRKEFRYLESA",
    "assigned_category": "middle"
  },
  {
    "substance": "AKPRYN",
    "assigned_category": "middle"
  }
]

Reference source for all entries: the supplement of paper PMC12042874
